- experimental protocol: folding stability dG unfold from trypsin proteolysis; higher = more stable
Please provide measured folding stability dG unfold for the entries that follow.
Express your answer as a number followed by its unit.

Study these solved cases before continuing.
SAGGPNIELEFETYRDPDGMLVIKFHIRIKFGNKPVYIFVEGVIPPDGEAQIEDAYIFDADNGEWIPISAGG [r13_932_TrROS]; 2.9 kcal/mol
TPLTTSTTTVPPSEIATPVTFNAPLSPDTSVTITTYDSATGTTSPVFSTTSASVTLTDLPNVSTATVVVVSS [r1_224_JUSTAS]; 0.702 kcal/mol
SAGGSAGGSAKTYEVKITVTNPNGEKKEITLEVEAETEEELLAAIKALAPPGAKVEIEIREVSAGGSAGGSA [r18_60_TrROS_Hall]; 4.33 kcal/mol

Now let's try a different one.
Request: Value lookup for folding stability dG unfold; key = SAGGSAGGSAAPLYELEILSVDLDPDNPTVYVLARIPGTSNYVLITFPPNGDVYAYASPLPSAGGSAGGSAG [r3_294_TrMRF]
Response: 1.95 kcal/mol

----------
- experimental protocol: folding stability dG unfold from trypsin proteolysis; higher = more stable
Label True when folding stability dG unfold is at or above 2 kcal/mol; otherwise label False.

SETITLEIELPDGSKLTIEIPVEKIPGVDEYVVTVKITEYLPNGKPRSREFTFLAKSPEEAVEIALLAAGSA [r9_337_TrMRF]; True
SAGGSAGGSAGIEIHVMEDPDGRWWLMITIKVKYKVRNPEDGDPIFEFEVTYTIMIWLKASAGGSAGGSAGG [r17_124_TrROS]; True
SAGGSQEFKFEILVPFDSPEEAKEEAEEIAKILQDHGLDVKVKVERDPNGAVKVPPTIRVDPEDGRPLSAGG [r13_697_TrROS]; False
SAGGSGMTVEVSVDPSTGTIRIKIKYGDKEYEVTAPVTRLPDGTYAVELKISAPNGPLLETKEITLPLSAGG [r13_59_JUSTAS]; True

Request: Is folding stability dG unfold for SMEIKVTVEEKDGKKYVTIEIKLSEEELKGKELTEEEIEELARELAKKLGIKEVKIERLPNGTYRIVIELSA [r9_883_TrROS_Hall] at or above 2 kcal/mol?
Response: True

Request: What about this sequence? SAGGSAGGGSMSMPVTTKLVEEYTFPGTKEEAEEFLKKKLPPNYQVEITETPDSIKVKVYKVEGSAGGSAGG [r6_953_JUSTAS]
Response: True

Request: What about this sequence? SAGGSAGGSAGMLARITLSTPEKPVEYIVPESEVEEYIKKLNLPEDTEVTVTPVDPAALLSAGGSAGGSAGG [r17_395_JUSTAS]
Response: False

----------
- experimental protocol: folding stability dG unfold from chymotrypsin proteolysis; higher = more stable
Please provide measured folding stability dG unfold for the entries that follow.
Answers are plain numbers, in kcal/mol.

Study these solved cases before continuing.
SAGGKKPKKLTPEQIEELAKALAPEGAEVKVEVVEVTEKTVVVKITVKDKETGEEKTIEITLPLPEESAGGS [r16_486_TrROS_Hall]; 1.73
SAGGLEIEVFNEKGEPVEVRLRRKEDDTLELEVRFRDASGREYRARATVRVKETEIELGEVDEWEELESAGG [r13_451_TrMRF]; 1.84
SAGGMGFEKVGTFKLEDDVIVEIYKGPEKKLVAKVYFPKTGKVIEDPGHPDESIEELIERIKAIAEEESAGG [r13_624_TrMRF]; 4.32
SAYLMFMIPIKNDEITIKIPVPPGYYVRIFVFFPDGMEPRTIPPDEKVKIKIPKPGAWIMIMVYPAEEMSAG [r14_882_TrROS]; 5
SMKPGEKLEIEVEIKVEEEDEEKRKKALEEAEEKLRELFEKLGLKDIKKVEVVEVEKLPDGTVKVKIRIDSA [r9_754_TrROS_Hall]; 1.32

Answer for every listed entry: what is its folding stability dG unfold? The entries follow.
1. SAGGSAGGSPPENMKIKIYNPNGEEQTIPVEGVKIRFNGDTHEIPPGDSIPIPPGIDAIEIEKSAGGSAGGS [r12_779_TrROS]
2. SAGGSAGGSASMAPPEVLSLPVEILEKSPDGSVTVLVPETGEVLTFPSPKVNVTPDGTLNLSSAGGSAGGSA [r18_89_JUSTAS]

Response:
1: 0.512; 2: -0.611

Recorded values, source the supplement of paper PMC12764529.
